pIC50: −log10 of the molar value.
Field: pIC50. System: Tyrosine-protein kinase Lck (Homo sapiens). Provenance: assorted publications.
Sequence (P06239 whole entry): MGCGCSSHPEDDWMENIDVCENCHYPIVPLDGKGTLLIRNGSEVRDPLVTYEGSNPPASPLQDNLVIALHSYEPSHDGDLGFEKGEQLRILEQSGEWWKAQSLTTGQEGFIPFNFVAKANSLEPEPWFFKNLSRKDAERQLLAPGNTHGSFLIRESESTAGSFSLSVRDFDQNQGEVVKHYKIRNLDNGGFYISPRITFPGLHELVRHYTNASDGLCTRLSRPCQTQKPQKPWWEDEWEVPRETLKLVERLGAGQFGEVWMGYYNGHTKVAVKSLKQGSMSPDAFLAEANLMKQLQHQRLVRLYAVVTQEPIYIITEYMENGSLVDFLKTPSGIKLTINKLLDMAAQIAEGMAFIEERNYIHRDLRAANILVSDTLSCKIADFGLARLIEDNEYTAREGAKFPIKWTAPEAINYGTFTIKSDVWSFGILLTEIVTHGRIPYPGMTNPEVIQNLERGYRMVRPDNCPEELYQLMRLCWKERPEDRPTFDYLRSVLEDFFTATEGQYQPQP
recordedEndpoint: pIC50

1. Nc1nccc(-c2sc(-c3ccccc3)nc2-c2cc(F)cc(NS(=O)(=O)c3c(F)cccc3F)c2)n1; < 6.00
2. O=[N+]([O-])c1ccc(/N=N\Cc2cccc(O)c2O)c([N+](=O)[O-])c1; < 2.60
3. Brc1ccc(N=NCc2ccncc2)cc1; < 2.54
4. COc1cc(NS(=O)(=O)c2c(F)cccc2F)c(F)c(-c2nc(-c3ccccc3)sc2-c2ccnc(N)n2)c1; > 7.00
5. COc1cc(F)c(S(=O)(=O)Nc2cccc(-c3nc(-c4ccccc4)sc3-c3ccnc(N)n3)c2F)c(F)c1; < 6.00
6. O=[N+]([O-])c1cccc(C/N=N/c2ccccc2)c1; < 2.48
7. COc1ccc(N=NCc2cc(O)ccc2O)cc1; 3.51
8. Cc1ccc(NC(=O)c2cccc(C(F)(F)F)c2)cc1-c1ccc2nc(Nc3ccc(OCCN)cc3)ncc2c1; > 8.70
9. Brc1ccc(N=NCc2ccccn2)cc1; < 2.54
10. Brc1ccc(N=NCc2cccnc2)cc1; < 2.54
